System: MS2 coat protein
TEST_SUMMARY: apparent KD of MS2 coat protein; designed switch direction (-1 OFF switch, 1 ON switch): 1; higher = weaker reporter binding
ASSAY_CONTEXT: Eterna round: R95; input ligand: FMN 200 uM
TEST_READOUT: apparent KD of MS2 coat protein

Entry UCAACUUUUUUUAGUGUGUUGCCAGGUUAACAUGAGGAUCACCCAUGUAAAGUAUAGUGGGAUUAAGUUCGUCUUAA [JR_SHM208A_Sub072] (puzzle: Sensor for hsa-mir-208a) under MS2 coat protein had apparent KD of MS2 coat protein of 77.2 nM

// returns apparent KD of MS2 coat protein for AAGUAACAUGAGGAUCACCCAUGUGAGGUGAGCGUAGGAUAUCGAGAAGGAAGGGUGGAGCGAGAAGGACGAGGGA [JR_SS1_Sub0101] (puzzle: Same State 1) with MS2 coat protein; value = 565 nM

Response field apparent KD of MS2 coat protein (MS2 coat protein) for item GUAGGACAUGAGGAUCACCCAUGUGGAGAGGAACGAGGAUAUGUGAGAGGAGUGCAGAGGACAGAAGGCGUGGAGG [JR_SS1_Sub027] (puzzle: Same State 1) : 42.6 nM

Param item: AGAGAACAUGAGGAUCACCCAUGUGAGAGGGAUGUAGGAUAUGUAAGGAAGAAAGAAGGAACAGAAGGACAAAGAG [JR_SS!_Sub066] (puzzle: Same State 1) ; param system: MS2 coat protein; output apparent KD of MS2 coat protein: 50.5 nM

Summary: CGUAGGUGGCUGGAGGAUAUUCGAGUGGUAACAUGAGGAUCACCCAUGUGUCGCGCGGUACAUGAGGAGAAGGCUAGCGGCCUGC (puzzle: Same State 2) , MS2 coat protein, apparent KD of MS2 coat protein = 20.8 nM

Continuing:
Measured on MS2 coat protein, UUAUAACAUGAGGAUCACCCAUGUCAACAAAGUCGAGGAUAUGGGCAUAGAUUAUAAGAACCAGAAGGCGAAUAUG [Mat - Same State 1 - Mod of UCT - D41] (puzzle: Same State 1) has a documented apparent KD of MS2 coat protein of 140 nM

Recorded apparent KD of MS2 coat protein for AAUUAUUAACAUGAGGAUCACCCAUGUAUUAUUAUUAUUAUUAACAAGCUUUUUCAUGUUAUUAGCUCGUCUUAUAA [Bojan's Design 2] (puzzle: Sensor for hsa-mir-208a version 2) on MS2 coat protein was 16.5 nM

Record ACGCAGCUGGGUGAGGAUAUCGGUGGUAAAACAUGAGGAUCACCCAUGUCCGAAGCUCGGACUUCCGAGAAGGCGCCCAACUGCA [Ercelama] (puzzle: Same State 2) has MS2 coat protein apparent KD of MS2 coat protein equal to 12.9 nM

So the reported apparent KD of MS2 coat protein for GAUAAACAUGAGGAUCACCCAUGUAAUAAUAUGGGAGGAUAUCAGAAUGUAUGUAUGUAAUGAGAAGGCCUAAUAG [Mat - Same State 1 - Mod of Eli - D72] (puzzle: Same State 1) , on MS2 coat protein, turned out to be 76.7 nM

// sequence GGCUAUCGCGUUCGAUAGCUUAAGCAUGUACAUGAGGAUCACCCAUGUCAUGUACAAGCUUUUUGCUCGUAUCUUAU (puzzle: Sensor for hsa-mir-208a) , assay MS2 coat protein, apparent KD of MS2 coat protein value: 94.6 nM

Response field apparent KD of MS2 coat protein (MS2 coat protein) for item UGUCCAGCCUGAGCUGGACAAAAGCAUGUACAUGAGGAUCACCCAUGUUCAUGUACAAGCUUUUUGCUCGUCUUAGC [salish99_208a_r3_067] (puzzle: Sensor for hsa-mir-208a) : 624 nM

Per the reported MS2 coat protein data, GUAAAACAUGAGGAUCACCCAUGUAAUAAUAUGGGAGGAUAUCUGAUUUAAUUUAAUUUAAGAGAAGGCCUAAAUG [Mat - Same State 1 - Mod of Eli - D58] (puzzle: Same State 1) has apparent KD of MS2 coat protein of 39.9 nM

Considering UGAGCCGGCACUGAGGAUAUUCAUAAUAAAACAUGAGGAUCACCCAUGUAGGCCAGAAGGCCUUGGGAGAAGGCAGGUCGGCUCA [Mat - Same State 2 - Mod of UCT - D71] (puzzle: Same State 2) , its apparent KD of MS2 coat protein with MS2 coat protein was recorded as 16.7 nM

apparent KD of MS2 coat protein for MS2 coat protein with input GUGGCCCAGGCACAGGAUAUGUUUCUCGUAACAUGAGGAUCACCCAUGUGCCUAUGAGAUAUAAUGCAGAAGGGUGCACGCCACG [Mat - Same State 2 - Mod of UCT - D80] (puzzle: Same State 2) equals 16.2 nM

Here GUAAUACAUGAGGAUCACCCAUGUCAAUGUAGUCGAGGAUAUGGGUAGCUAUGAGGCUUACUAGAAGGCGACGAGC [Same State 1 - Mod of Vinnie Teenbexe v.5] (puzzle: Same State 1) was tested on MS2 coat protein, and its apparent KD of MS2 coat protein came to 28 nM

Tested on MS2 coat protein: UACAAUCUAUCUCAGGAUAUCAUGUCAAAGACAUGAGGAUCACCCAUGUACCAGGAAACUGGUUAUGAGAAGGGAGAUAGAUUGU [Mat - Same State 2 - Mod - D24] (puzzle: Same State 2) . Observed apparent KD of MS2 coat protein: 136 nM

Per the reported MS2 coat protein data, UCUUGGUUUUUGCUCGUUUUUUGUGUUGAACAUGAGGAUCACCCAUGUAUUGUACGGUCCGGUUUAGUAAUGGUCCG [JMF 11] (puzzle: Sensor for hsa-mir-208a) has apparent KD of MS2 coat protein of 24.8 nM

The value of apparent KD of MS2 coat protein recorded for CGUCCGGCCUGUGCUGGCCGGAUGCAUGUACAUGAGGAUCACCCAUGUUCAUGUGCAGGCUUUUUGCUCGUCUUGUG [salish99_mir208a_r3_008] (puzzle: Sensor for hsa-mir-208a) when tested on MS2 coat protein reads 19.2 nM

# GGCAUGCGGCGUACCGUAUGCUGGUAUGUACAUGAGGAUCACCCAUGUCAUGUACAGGCUUUUUGCUCGUCUUAUUG [JL-shm-2.40 JL mod] (puzzle: Sensor for hsa-mir-208a) with MS2 coat protein: apparent KD of MS2 coat protein is 128 nM

Value sought: apparent KD of MS2 coat protein, system MS2 coat protein, item GAAAAGGCGACGCAGGAUAUGAAAGGUGAAACAUGAGGAUCACCCAUGUGCUACCUUCCGAUAAAUCAGAAGGGCGACGCCUAGA [Azaanre] (puzzle: Same State 2) . Result: 11.4 nM

====

Tested on: K4 kissing-loop RNA reporter;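 note: bound reporter read as fluorescence of individual clusters on recovered sequencing chips by microscopy, with normalized cluster intensities fitted with a binding model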
TEST_SUMMARY: apparent KD of K4 kissing-loop reporter; higher = weaker reporter binding
ASSAY_CONTEXT: Eterna round: R107; input ligand: FMN 200 uM
TEST_READOUT: apparent KD of K4 kissing-loop reporter (nM)
Numbers only; they are read as nM.

Here's what some known entries look like.
The value of apparent KD of K4 kissing-loop reporter recorded for UAUGAAUGUGGAGGAUAUUGAUUGAAUCUUGGUCUGGAGUGAUGUUCCGGGAAGCCUUGGAUUCAUCGAGAAGGCCAUGGAUAGU [#03 K4 FMN B Same State] when tested on K4 kissing-loop RNA reporter reads 111

Entry GCAACUCUCAGUGAUGUUGAGUUAUCGGAAGGAGCGCGUGAAAACGCAGGUAGGUCGCCGAUACAAUGAGUUUCUCGUUGGUUGC [Arginine A K4 21] : apparent KD of K4 kissing-loop reporter on K4 kissing-loop RNA reporter = 769

The observed apparent KD of K4 kissing-loop reporter for "GCCGUACGCAUGGAUACCAGAGAUGUUAGUCUCGAUGCCAGUGAUGUUGGCUAUAGCAUACUCCCUUGGCAGCCAUGCGUACGGC" when tested with K4 kissing-loop RNA reporter stands at 132

For GGUUCGAGUGAUGUUCGGGUCGAUUGGGAAGGAGCGCCCGGAAGGGCAGGUAGGUCGCCCGGGCCGCGCGGGAAACCGCGCGUCC [#2 Same State - Arginine A Attempt #7 (HarryS)] on K4 kissing-loop RNA reporter, measured apparent KD of K4 kissing-loop reporter was 216

Hey, K4 kissing-loop RNA reporter data for UAUCGAGUGAUGUUCGAUGUAGUUCAUUCAGAGGAUAUAGGAUGGGCUAGAAGGCUGAAAAGUGCUUCGAGUGAUGUUCGAAGAU [Exclusion FMN A GF 6] : apparent KD of K4 kissing-loop reporter came out at 64.6

Attention now turns to another entry.
With K4 kissing-loop RNA reporter as the test system, UGAUACCAGACGGCCGCCACUCCCGCAGGUCAAAGACCUGCGAAGAUGGUUCUUCAGUGAUGUUGGAGGACCGGGUCUGGUAUCU [FiskerMod 23 - Jieux - Exclusion - Tryptophan B] showed apparent KD of K4 kissing-loop reporter of 173
